src = PubChem BioAssay

Catalogue of z-score values
# test_description: JC-1 mitochondrial potential readout, lung cancer cells – cell-based, A549, JC-1 fluorescence, basal, 24 h, 100 nL, profiling panel (AID 1138);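 note: A549 lung adenocarcinoma cells under basal conditions with no added stimulus; test concentration not given here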
# reported_conditions: higher = more signal
The reply should be a number, written without any unit.

compound	result
C=C(CCCC)C(=O)CC[C@@H](OC(=O)c1ccccc1-c1ccccc1C(=O)O)c1ccccc1OCCO	0.916
O=C(NCC(O)CO)C1N=C(c2ccc(OCCCO)cc2)N(c2ccccc2)O1 (centres undefined)	0.42

Task: Given the compound `COCCOC(=O)N1C(=O)[C@@]2(c3cc(C#CCC(C(=O)OC)C(=O)OC)ccc31)[C@H](C(=O)Nc1nc3ccccc3s1)[C@H]1C(=O)O[C@H](c3ccccc3)[C@H](c3ccccc3)N1[C@@H]2c1ccc(OCCO)cc1` , what is its reported z-score?
Output: -2.33

Task: Can you handle `O=C(NCc1ccccc1)[C@@H]1c2ccccc2C(=O)N(Cc2ccc(OC(F)(F)F)cc2)[C@H]1c1ccc(CO)cc1` next?
Output: 2.79

Task: Can you handle `Cc1ccc(S[C@]2(C(=O)NCCCN(C)C)CC(=O)N(Cc3ccccc3C(F)(F)F)[C@@H]2c2ccc(CO)cc2I)cc1` next?
Output: 0.281

Task: Can you handle C=CC1c2cc(O)c(OC)cc2CCN1C (centres undefined) next?
Output: -0.0592

Task: Can you handle `CC(C)C[C@@H]1NC(=O)[C@@H]2C[C@H](C(=O)NCCCCCCNC(=O)CS)[C@H](c3cccc(OCCO)c3)N2C1=O` next?
Output: -0.0497

Task: Can you handle `CCOC(=O)C[C@H]1[C@H](OC(=O)c2ccccc2-c2ccccc2)[C@@H](NC(=O)c2ccc3ccccc3c2)c2cc(OCCCO)ccc2N1C(=O)Cc1ccc(OC)cc1` next?
Output: 0.847

Task: Can you handle CCCCC(O)C1C=CC2C(=O)N(c3ccccc3)C(=O)C2N1Nc1ccc([N+](=O)[O-])cc1 (centres undefined) next?
Output: -0.52

Task: Can you handle `CN1C(=O)[C@@H]2[C@@H](CC(COc3ccccc3)=C3[C@@H](CCc4ccccc4)OB(O)C[C@@H]32)C1=O` next?
Output: 0.208

Task: Can you handle `CCCCCCc1nc(-c2ccc(-c3ccc(Cl)c(Cl)c3)o2)cc2c1[Si](C(C)C)(C(C)C)OC2` next?
Output: -0.413

Task: Can you handle `O=C1C[C@]2(c3ccc([N+](=O)[O-])cc3)C(=O)N(C3CC3)c3cc(CO)ccc3[C@H]2N1C1CCCCC1` next?
Output: -0.22

Task: Can you handle `COCCOC(=O)N1C(=O)[C@@]2(c3cc(C#CCCO)ccc31)[C@H](C(N)=O)[C@H]1C(=O)O[C@H](c3ccccc3)[C@H](c3ccccc3)N1[C@@H]2c1ccccc1OCCO` next?
Output: -0.256

Task: Can you handle O=C1NC(=O)C2C1C=CC(C(O)c1ccc(B(O)O)cc1)N2Nc1ccc(Cl)cc1Cl (centres undefined) next?
Output: -0.711

Task: Can you handle `CC(C)C(=C=CC[C@H](O)c1ccccc1OCCO)C[C@H](O)COCc1ccccc1` next?
Output: 0.742

Task: Can you handle `COC(=O)[C@@]1(Cc2ccccc2)[C@H]2c3cc(C(=O)N(C)C)n(Cc4ccc(S(C)(=O)=O)cc4)c3C[C@H]2CN1C(=O)c1ccccc1` next?
Output: -0.699

Task: Can you handle `C=C(CCCC)/C(=C/C[C@H](OC(=O)c1ccncc1)c1ccccc1OCCO)c1cc(C(=O)OC)ccc1OC` next?
Output: 2.03

Task: Can you handle `C=C(/C(=C/C[C@@H](OC(C)=O)c1cccc(OCCO)c1)c1cnc2ccccc2c1)C(C)C` next?
Output: 0.41

Task: Can you handle COc1ccc(C(O)C2C=CC3C(=O)N(c4ccccc4)C(=O)C3N2Nc2ccc([N+](=O)[O-])cc2)c2ccccc12 (centres undefined) next?
Output: -1.56

Task: Can you handle `CCCC#C[Si](O[C@H](CC)c1cn(Cc2ccccc2)nn1)(C(C)C)C(C)C` next?
Output: -0.0817

Task: Can you handle `COCCOC(=O)N1C(=O)[C@@]2(c3ccccc31)[C@H](C(=O)N1CCN(c3ncccn3)CC1)[C@H]1C(=O)O[C@H](c3ccccc3)[C@H](c3ccccc3)N1[C@@H]2c1ccccc1OCCO` next?
Output: -0.531
